target: human TLR9 (Homo sapiens (Human), UniProt Q9NR96); assay: TLR9 inhibition reporter assay (HEK-Blue SEAP); settings: read-out: TLR9 IC50; HEK-Blue cells overexpressing human TLR9, ODN2006 5 nM stimulation, SEAP reporter
Sequence (Q9NR96 26-1032): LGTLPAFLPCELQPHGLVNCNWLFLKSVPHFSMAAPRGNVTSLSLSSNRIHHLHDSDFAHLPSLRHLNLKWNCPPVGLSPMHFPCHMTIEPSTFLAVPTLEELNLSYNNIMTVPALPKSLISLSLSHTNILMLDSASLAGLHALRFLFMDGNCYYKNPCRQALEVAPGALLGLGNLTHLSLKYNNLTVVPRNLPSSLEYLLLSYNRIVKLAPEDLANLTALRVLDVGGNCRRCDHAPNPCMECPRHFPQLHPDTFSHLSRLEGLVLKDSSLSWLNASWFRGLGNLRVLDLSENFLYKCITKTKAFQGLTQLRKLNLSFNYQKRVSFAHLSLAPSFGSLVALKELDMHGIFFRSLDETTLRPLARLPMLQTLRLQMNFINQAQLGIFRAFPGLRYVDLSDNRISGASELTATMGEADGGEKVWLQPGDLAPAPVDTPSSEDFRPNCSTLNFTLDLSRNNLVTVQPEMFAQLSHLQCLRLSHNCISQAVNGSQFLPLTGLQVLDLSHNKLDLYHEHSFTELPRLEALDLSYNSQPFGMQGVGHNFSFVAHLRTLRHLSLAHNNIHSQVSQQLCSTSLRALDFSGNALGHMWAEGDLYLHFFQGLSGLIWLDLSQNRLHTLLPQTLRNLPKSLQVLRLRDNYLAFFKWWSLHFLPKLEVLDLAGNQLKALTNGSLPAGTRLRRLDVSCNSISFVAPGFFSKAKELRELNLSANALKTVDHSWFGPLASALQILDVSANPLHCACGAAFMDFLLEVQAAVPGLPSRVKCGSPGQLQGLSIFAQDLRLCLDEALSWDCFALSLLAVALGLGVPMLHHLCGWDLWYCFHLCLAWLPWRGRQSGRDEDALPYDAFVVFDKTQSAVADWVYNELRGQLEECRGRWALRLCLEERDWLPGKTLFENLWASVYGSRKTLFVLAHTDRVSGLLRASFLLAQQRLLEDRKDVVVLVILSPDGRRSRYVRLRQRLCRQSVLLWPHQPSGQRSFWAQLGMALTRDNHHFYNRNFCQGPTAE
pIC50: −log10 of the molar value.
Rule: pIC50 of 6 or more gives y; anything lower gives n.

compound: COc1cc(-c2[nH]c3cnc(N4CCN(C5CCN(C(C)C)CC5)CC4)c(F)c3c2C(C)C)cn2ncnc12
category_label: n

compound: CNC1CCN(c2ncc3[nH]c(-c4cc(OC)c5ncnn5c4)c(C(C)C)c3c2F)CC1
category_label: n

compound: Cc1c(-c2[nH]c3cnc(N4CCN(C5CCOCC5)CC4)c(F)c3c2C(C)C)cn2ncnc2c1C
category_label: n

compound: Cc1c(-c2[nH]c3cnc(N4CC5(CN(CC6CCC6)C5)C4)c(F)c3c2C(C)C)cn2ncnc2c1C
category_label: n

compound: Cc1c(-c2[nH]c3cnc(C4CCN(CC(=O)N(C)C)CC4)cc3c2C(C)C)cn2ncnc2c1C
category_label: y

compound: Cc1c(-c2[nH]c3cnc(C4CCC(NCC5(C)COC5)CC4)c(C)c3c2C(C)C)cn2ncnc2c1C (stereo not shown) [Example 204]
category_label: y

###

biological target: human TLR9 (Homo sapiens (Human), UniProt Q9NR96); assay: TLR9 inhibition reporter assay (HEK-Blue SEAP); details: read-out: TLR9 IC50; HEK-Blue cells overexpressing human TLR9, ODN2006 5 nM stimulation, SEAP reporter;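 also: SEAP driven by IFN-β minimal promoter carrying five NF-κB and AP-1 sites, 22 h at 37 °C, compounds 0.05 nM–50 µM, inhibition scaled between agonist-plus-DMSO and reference-inhibitor wells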
Collected IC50 values appear next to each entry.

molecule: COc1cc(-c2[nH]c3cnc(C4CCC(N5CC6(COC6)C5)C4)cc3c2C(C)C)cn2ncnc12 (stereo not shown) [Example 208]
target_desc: human TLR9 (Homo sapiens (Human), UniProt Q9NR96)
IC50, nM: 276
//
molecule: CNC(=O)CN1CCC(c2cc3c(C(C)C)c(-c4cn5ncnc5c(C)c4C)[nH]c3cn2)CC1 [Example 27]
target_desc: human TLR9 (Homo sapiens (Human), UniProt Q9NR96)
IC50, nM: 477
//
molecule: COC(C)(C)CNC1CCN(c2ncc3[nH]c(-c4cn5ncnc5c(C)c4C)c(C(C)C)c3c2C)CC1
target_desc: human TLR9 (Homo sapiens (Human), UniProt Q9NR96)
IC50, nM: 653
//
molecule: Cc1cc(-c2[nH]c3cnc(C4CCN(C5CCOCC5)CC4)c(F)c3c2C(C)C)cn2ncnc12
target_desc: human TLR9 (Homo sapiens (Human), UniProt Q9NR96)
IC50, nM: 1530

###

biological target: human TLR8 (Homo sapiens (Human), UniProt Q9NR97); experiment: TLR8 inhibition reporter assay (HEK-Blue SEAP); settings: read-out: TLR8 IC50; HEK-Blue cells overexpressing human TLR8, R848 15.9 μM stimulation, SEAP reporter;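 also: SEAP driven by IFN-β minimal promoter with five NF-κB and AP-1 sites, compounds tested 0.05 nM to 50 µM, 22 h incubation, inhibition relative to agonist plus DMSO wells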
Sequence (Q9NR97 27-1041): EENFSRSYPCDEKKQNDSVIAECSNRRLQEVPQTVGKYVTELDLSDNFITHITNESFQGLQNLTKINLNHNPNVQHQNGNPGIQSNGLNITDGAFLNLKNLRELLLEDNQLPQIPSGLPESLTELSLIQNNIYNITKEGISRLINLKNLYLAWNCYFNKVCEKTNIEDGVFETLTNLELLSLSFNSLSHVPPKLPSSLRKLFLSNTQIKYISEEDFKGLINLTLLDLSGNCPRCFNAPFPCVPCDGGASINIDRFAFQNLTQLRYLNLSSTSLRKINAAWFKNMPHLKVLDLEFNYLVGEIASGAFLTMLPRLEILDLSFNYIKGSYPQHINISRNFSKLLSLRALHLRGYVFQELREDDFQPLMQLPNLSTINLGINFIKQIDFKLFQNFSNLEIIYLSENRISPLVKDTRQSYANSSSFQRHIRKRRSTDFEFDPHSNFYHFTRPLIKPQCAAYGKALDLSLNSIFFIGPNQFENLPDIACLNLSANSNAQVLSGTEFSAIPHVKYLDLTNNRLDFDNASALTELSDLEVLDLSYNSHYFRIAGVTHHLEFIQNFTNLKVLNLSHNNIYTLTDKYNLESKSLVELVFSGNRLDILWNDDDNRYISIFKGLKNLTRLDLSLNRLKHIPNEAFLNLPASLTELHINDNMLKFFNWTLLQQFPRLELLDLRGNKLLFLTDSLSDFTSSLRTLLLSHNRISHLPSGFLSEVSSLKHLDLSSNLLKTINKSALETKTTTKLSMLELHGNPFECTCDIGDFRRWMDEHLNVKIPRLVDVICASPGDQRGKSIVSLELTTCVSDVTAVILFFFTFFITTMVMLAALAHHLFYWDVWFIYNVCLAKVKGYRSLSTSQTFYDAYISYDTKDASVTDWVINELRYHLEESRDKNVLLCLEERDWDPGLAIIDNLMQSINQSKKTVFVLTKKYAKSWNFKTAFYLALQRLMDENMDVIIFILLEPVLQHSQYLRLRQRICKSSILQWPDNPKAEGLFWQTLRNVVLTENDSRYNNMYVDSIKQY
pIC50: −log10 of the molar value.
Rule: pIC50 of 8 or more gives MET; anything lower gives NOT MET.

compound: Cc1c(N2CCC(NC34CC(C3)C4)CC2)ncc2[nH]c(-c3cc(C)c4ncnn4c3)c(C(C)C)c12 [Example 148]
category_label: MET
--
compound: COc1cc(-c2[nH]c3cnc(N4CCN(C5COC5)CC4)c(F)c3c2C(C)C)cn2ncnc12 [Example 382]
category_label: NOT MET
--
compound: COc1cc(-c2[nH]c3cnc(C4CCC(NC(C)C)CC4)cc3c2C(C)C)cn2ncnc12 (stereo not shown) [Example 315]
category_label: NOT MET
--
compound: Cc1c(-c2[nH]c3cnc(C4CCN(CC(=O)N(C)C)CC4)c(F)c3c2C(C)C)cn2ncnc2c1C [Example 22]
category_label: MET
